Reference source: patent US20210238260

# target: Factor X (FX), P00742
# Sequence (P00742 whole entry, looked up): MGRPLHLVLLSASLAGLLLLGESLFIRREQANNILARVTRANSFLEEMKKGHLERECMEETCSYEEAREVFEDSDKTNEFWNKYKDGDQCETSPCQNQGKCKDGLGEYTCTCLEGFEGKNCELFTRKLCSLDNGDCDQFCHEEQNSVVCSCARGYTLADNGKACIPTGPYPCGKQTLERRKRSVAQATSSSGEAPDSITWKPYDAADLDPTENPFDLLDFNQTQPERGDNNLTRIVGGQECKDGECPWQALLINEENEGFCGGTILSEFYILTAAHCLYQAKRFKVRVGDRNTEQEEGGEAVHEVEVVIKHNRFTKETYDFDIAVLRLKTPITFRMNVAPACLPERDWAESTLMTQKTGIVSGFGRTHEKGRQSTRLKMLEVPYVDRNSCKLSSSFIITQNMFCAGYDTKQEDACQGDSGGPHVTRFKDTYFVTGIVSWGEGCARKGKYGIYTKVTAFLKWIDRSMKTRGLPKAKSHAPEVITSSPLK
quantityMeasured: KM (µM)
Write the number in µM without appending the unit.

protein: FIXa-R318Y/R338E/R403E/E410N/T412A (protein) chain 1: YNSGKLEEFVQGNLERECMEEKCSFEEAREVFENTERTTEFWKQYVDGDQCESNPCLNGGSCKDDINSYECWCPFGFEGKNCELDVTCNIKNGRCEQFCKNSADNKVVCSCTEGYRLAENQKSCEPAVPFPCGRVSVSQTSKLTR chain 2: VVGGEDAKPGQFPWQVVLNGKVDAFCGGSIVNEKWIVTAAHCVETGVKITVVAGEHNIEETEHTEQKRNVIRIIPHHNYNAAINKYNHDIALLELDEPLVLNSYVTPICIADKEYTNIFLKFGSGYVSGWGRVFHKGYSALVLQYLRVPLVDRATCLESTKFTIYNNMFCAGFHEGGRDSCQGDSGGPHVTEVEGTSFLTGIISWGEECAMKGKYGIYTKVSEYVNWIKNKAKLT
u: µM
recordedValue: 0.0335

Now, please, on to the next protein.
KM recorded for this protein, FIXa-Y155F/K247N/N249S/R338E/E410N (protein) chain 1: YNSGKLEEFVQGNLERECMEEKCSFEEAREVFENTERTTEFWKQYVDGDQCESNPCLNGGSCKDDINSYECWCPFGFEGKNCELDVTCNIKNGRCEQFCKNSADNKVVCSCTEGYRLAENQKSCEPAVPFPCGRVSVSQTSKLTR chain 2: VVGGEDAKPGQFPWQVVLNGKVDAFCGGSIVNEKWIVTAAHCVETGVKITVVAGEHNIEETEHTEQNRSVIRIIPHHNYNAAINKYNHDIALLELDEPLVLNSYVTPICIADKEYTNIFLKFGSGYVSGWGRVFHKGRSALVLQYLRVPLVDRATCLESTKFTIYNNMFCAGFHEGGRDSCQGDSGGPHVTEVEGTSFLTGIISWGEECAMKGKYGIYTKVSRYVNWIKNKTKLT , is 0.0177
